Test target: recombinant human DGAT-1 (Homo sapiens, UniProt O75907)
Construct: crude cell homogenate used
Sequence (O75907 whole entry): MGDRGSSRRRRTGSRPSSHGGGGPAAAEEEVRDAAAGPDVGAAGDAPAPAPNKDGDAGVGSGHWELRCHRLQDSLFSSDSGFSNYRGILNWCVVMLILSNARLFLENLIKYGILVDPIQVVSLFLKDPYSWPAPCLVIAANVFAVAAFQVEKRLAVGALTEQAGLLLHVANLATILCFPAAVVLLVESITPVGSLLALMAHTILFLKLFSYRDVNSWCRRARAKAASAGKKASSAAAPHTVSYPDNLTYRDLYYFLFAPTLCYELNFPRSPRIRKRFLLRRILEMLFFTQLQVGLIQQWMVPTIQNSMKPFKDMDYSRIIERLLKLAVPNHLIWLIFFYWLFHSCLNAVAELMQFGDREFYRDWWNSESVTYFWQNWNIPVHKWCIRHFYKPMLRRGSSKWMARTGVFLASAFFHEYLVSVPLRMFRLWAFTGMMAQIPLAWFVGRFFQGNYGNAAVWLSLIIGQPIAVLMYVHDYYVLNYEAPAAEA
Experiment summary: DGAT-1 enzyme assay
Test context: recombinant human DGAT-1 expressed in sf9 insect cells; geometric mean±standard error
Protocol: DGAT-1 enzyme assay Inhibitors of DGAT-1 are identified with an in vitro enzymatic assay which uses recombinant human DGAT-1 expressed in sf9 insect cells as an enzyme source. […] Assays are performed in 96 well plates using a modification of the assay described by Coleman (Methods in Enzymology 209. pp 98-102 (1992)). […] One hundred microliters of scintillation cocktail is then added and, after 8 hr, plates are counted. […]
// IC50 lookup, one value per entry
The answer is to be given in nM; state only the numeric part.

O=C(NC1(C(=O)N[C@@H]2CCc3ccccc3-n3ccnc32)CC1)c1ccc(Cl)cc1; 89

For the next question, use this compound.
[ask] // lookup IC50 for `CCOc1ccc(C(=O)NC2(C(=O)N[C@@H]3CCc4ccccc4-n4ccnc43)CC2)cc1`
[reply] 134
